Data origin: patent US20230272055A1

Biological target: T1, human mutCALR on BaF3 cells stably expressing human MPL and human mutCALR (MPL-mutCALR cells) (human)
T1 construct: also called mutant calreticulin
T1 chain: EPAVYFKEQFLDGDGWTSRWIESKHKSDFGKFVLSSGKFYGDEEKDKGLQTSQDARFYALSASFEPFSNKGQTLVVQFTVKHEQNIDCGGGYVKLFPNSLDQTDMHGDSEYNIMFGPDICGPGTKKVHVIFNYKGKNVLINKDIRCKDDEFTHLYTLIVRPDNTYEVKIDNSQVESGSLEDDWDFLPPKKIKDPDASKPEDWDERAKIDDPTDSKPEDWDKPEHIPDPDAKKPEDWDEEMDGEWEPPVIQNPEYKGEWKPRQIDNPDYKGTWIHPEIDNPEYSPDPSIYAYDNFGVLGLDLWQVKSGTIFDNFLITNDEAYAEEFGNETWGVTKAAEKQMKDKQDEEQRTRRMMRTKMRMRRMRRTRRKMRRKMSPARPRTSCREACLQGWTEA
Test: flow cytometry, BaF3 MPL-mutCALR cells
Examples of binders with documented MPL-mutCALR AUC follow.
recorded-metric: MPL-mutCALR AUC

# binder, recorded-metric, numeric-result
data = [
    ("anti-mutCALR antibody clone 1 (antibody, human IgG1, lambda, V domains shown, human IgG1) VH: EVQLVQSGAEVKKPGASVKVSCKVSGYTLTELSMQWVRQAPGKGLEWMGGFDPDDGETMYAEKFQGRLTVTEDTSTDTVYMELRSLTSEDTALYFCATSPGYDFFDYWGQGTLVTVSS VL: SYVLTQPPSVSVAPGKTARITCGGNYIGSKSVHWYQQKPGQAPVLVVYDDGDRPSGIPARFSGSNSGNTATLTISRVEAGDEADYYCQVWDSISDHVVFGGGTKLTVLG", "MPL-mutCALR AUC", 52800),
    ("anti-mutCALR antibody clone 10 (antibody, human IgG1, lambda, V domains shown, human IgG1) VH: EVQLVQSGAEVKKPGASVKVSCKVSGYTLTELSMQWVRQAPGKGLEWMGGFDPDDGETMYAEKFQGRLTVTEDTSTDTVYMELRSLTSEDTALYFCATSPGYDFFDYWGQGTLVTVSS VL: SYELTQPPSVSVAPGQTARIPCGGNNIGSEGVHWYQQKPGQAPVLVVYDDSDRPSGIPERFSGSNSGNTATLTISRVEAGDEADYYCQVWDSSNDLLIFGGGTKLTVLG", "MPL-mutCALR AUC", 72100),
    ("anti-mutCALR antibody clone 74 (antibody, human IgG1, lambda, N297A, V domains shown) VH: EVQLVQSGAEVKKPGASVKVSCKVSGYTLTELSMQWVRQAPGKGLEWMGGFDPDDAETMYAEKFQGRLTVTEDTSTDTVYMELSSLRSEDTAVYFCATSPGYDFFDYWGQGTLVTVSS VL: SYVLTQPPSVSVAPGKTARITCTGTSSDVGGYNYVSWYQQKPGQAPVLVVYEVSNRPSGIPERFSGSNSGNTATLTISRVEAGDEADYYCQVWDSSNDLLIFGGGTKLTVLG", "MPL-mutCALR AUC", 81800),
]
